Test system: Mus musculus
METHOD_DESCRIPTION: Antiinflammatory activity in po dosed mouse plasma assessed as inhibition of LPS-induced TNFalpha production administered 1 hr before LPS challenge measured after 1 hr
Format: functional
MEASURE: ED50

Task item: Could you share which ED50 value was measured for CC(C)(CC(O)(Cc1cc2ccc(C#N)cc2[nH]1)C(F)(F)F)c1cc(S(C)(=O)=O)cc2c1OCC2 (racemic) ?
Reply: < 10 mg/kg

Task item: Can you share its ED50? I mean this compound: CC(C)(CC(O)(Cc1cc2cc(C#N)ccc2[nH]1)C(F)(F)F)c1cc(S(C)(=O)=O)cc2c1OCC2 (racemic)
Reply: < 10 mg/kg

Task item: Consider the compound shown here: `CC(C)(C[C@@](O)(Cc1cc2ccccc2[nH]1)C(F)(F)F)c1cc(Br)cc2c1OCC2` What is its recorded ED50?
Reply: < 10 mg/kg

Task item: What value of measured ED50 is listed for `CC(C)(C[C@@](O)(Cc1cc2ccc(C#N)cc2[nH]1)C(F)(F)F)c1cc(S(C)(=O)=O)cc2c1OCC2` ?
Reply: < 3 mg/kg

---

TGT: UniProt P04150
METHOD_DESCRIPTION: Transactivation activity of glucocorticoid receptor in HFF assessed as induction of aromatase activity by measuring beta-estradiol activity after 18 to 24 hrs by ELISA relative to Dexamethasone
MEASURE: Efficacy (%)
# value in %; strip the unit string

Task item: Please give the measured Efficacy for this compound: CC(C)(CC(O)(Cc1cc2ccc(C#N)cc2[nH]1)C(F)(F)F)c1cc(S(C)(=O)=O)cc2c1OCC2 (racemic)
Reply: 98

Task item: Which Efficacy is listed for CC(C)(CC(O)(Cc1cc2ccccc2[nH]1)C(F)(F)F)c1cc(C#N)cc2c1OCC2 (racemic) ?
Reply: 55

Task item: Please look up its Efficacy: CC(C)(CC(O)(Cc1cc2ccccc2[nH]1)C(F)(F)F)c1cc(F)cc2c1OCC2 (racemic)
Reply: 98

Task item: Look up Efficacy for this compound: COc1ccc(F)cc1C(C)(C)CC(O)(Cc1cc2ccc(F)cc2[nH]1)C(F)(F)F (racemic)
Reply: 84

Task item: If you can, please state the reported Efficacy value of Cc1cc2c(c(C(C)(C)CC(O)(Cc3cc4ccccc4[nH]3)C(F)(F)F)c1)OCC2 (racemic) .
Reply: 105

Task item: Value lookup for Efficacy; key = `COc1ccc(F)cc1C(C)(C)C[C@](O)(Cc1cc2ccccc2[nH]1)C(F)(F)F`
Reply: 20

Task item: Look up Efficacy: `CC(C)(C[C@@](O)(Cc1cc2ccc(C#N)cc2[nH]1)C(F)(F)F)c1cc(S(C)(=O)=O)cc2c1OCC2`
Reply: 74

Task item: Endpoint output: Efficacy of COc1ccc(F)cc1C(C)(C)CC(O)(Cc1cc2cc(F)ccc2[nH]1)C(F)(F)F (racemic) . Value?
Reply: 98

Task item: Item under review: CC(C)(CC(O)(Cc1cc2ccccc2[nH]1)C(F)(F)F)c1cccc2c1OCC2 (racemic) . Reported Efficacy?
Reply: 103

Task item: // returns reported Efficacy for input COc1ccc(F)cc1C(C)(C)CC(O)(Cc1cc2cc(C(F)(F)F)ccc2[nH]1)C(F)(F)F (racemic)
Reply: 65

Task item: What value of Efficacy has been recorded for this entry: CCc1cccc2[nH]c(CC(O)(CC(C)(C)c3cc(F)ccc3OC)C(F)(F)F)cc12 (racemic)
Reply: 49

---

TGT: UniProtKB P04150
Sequence (P04150 whole entry): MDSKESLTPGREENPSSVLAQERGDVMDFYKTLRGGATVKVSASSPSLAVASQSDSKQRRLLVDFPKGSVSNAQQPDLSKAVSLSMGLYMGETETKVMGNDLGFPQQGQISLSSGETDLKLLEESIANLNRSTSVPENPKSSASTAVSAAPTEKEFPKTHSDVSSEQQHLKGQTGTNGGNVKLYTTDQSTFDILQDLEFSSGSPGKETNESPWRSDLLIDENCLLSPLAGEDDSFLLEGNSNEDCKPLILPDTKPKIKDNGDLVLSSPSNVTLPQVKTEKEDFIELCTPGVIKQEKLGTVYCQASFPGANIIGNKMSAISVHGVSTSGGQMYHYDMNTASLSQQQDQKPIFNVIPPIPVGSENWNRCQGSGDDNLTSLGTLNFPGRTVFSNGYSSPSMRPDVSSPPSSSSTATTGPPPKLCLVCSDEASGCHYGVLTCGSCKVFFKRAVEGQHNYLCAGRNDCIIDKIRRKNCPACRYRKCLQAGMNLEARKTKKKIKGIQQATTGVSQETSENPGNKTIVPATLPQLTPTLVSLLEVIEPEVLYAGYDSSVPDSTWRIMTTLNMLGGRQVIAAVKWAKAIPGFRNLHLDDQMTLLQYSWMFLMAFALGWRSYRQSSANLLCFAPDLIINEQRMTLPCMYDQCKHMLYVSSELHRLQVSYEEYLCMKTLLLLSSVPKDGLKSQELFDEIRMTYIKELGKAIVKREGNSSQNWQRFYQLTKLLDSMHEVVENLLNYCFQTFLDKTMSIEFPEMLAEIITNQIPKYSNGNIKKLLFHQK
METHOD_DESCRIPTION: Agonist activity at glucocorticoid receptor in HFF assessed as inhibition of IL1-induced IL-6 production after 18 to 24 hrs
Assay type: functional
Consider the following molecules; for each one, report its pIC50.
Recall that pIC50 is obtained by taking minus log10 of the concentration measured in molar.

Task item: Dear colleague, I am looking for the recorded pIC50 of the following molecule: CC(C)(CC(O)(Cc1cc2cc(C#N)ccc2[nH]1)C(F)(F)F)c1cc(S(C)(=O)=O)cc2c1OCC2 (racemic)
Reply: 7.31

Task item: pIC50 for CC(C)(CC(O)(Cc1cc2ccccc2[nH]1)C(F)(F)F)c1cc(F)cc2c1OCC2 (racemic) ?
Reply: 7.68

Task item: Tell me the measured pIC50 of COc1ccc(F)cc1C(C)(C)CC(O)(Cc1cc2ccccc2[nH]1)C(F)(F)F (racemic) , please.
Reply: 8.15

Task item: Recorded pIC50 for COc1ccc(F)cc1C(C)(C)CC(O)(Cc1cc2cc(C)ccc2[nH]1)C(F)(F)F (racemic) , please?
Reply: 6.95

Task item: Name the recorded pIC50 for CCc1cccc2[nH]c(CC(O)(CC(C)(C)c3cc(F)ccc3OC)C(F)(F)F)cc12 (racemic) .
Reply: 7.06

Task item: Return reported pIC50; argument: CC(C)(CC(O)(Cc1cc2ccccc2[nH]1)C(F)(F)F)c1cc(C#N)cc2c1OCC2 (racemic)
Reply: 6.98

Task item: Look up pIC50: CC(C)(CC(O)(Cc1cc2ccccc2[nH]1)C(F)(F)F)c1cccc2c1OCC2 (racemic)
Reply: 8.00

Task item: Quick check: pIC50 of COc1ccc(F)cc1C(C)(C)CC(O)(Cc1cc2c(C#N)cccc2[nH]1)C(F)(F)F (racemic) ?
Reply: 8.10

Task item: Recorded pIC50 for COc1ccc(F)cc1C(C)(C)CC(O)(Cc1cc2ccc(C#N)cc2[nH]1)C(F)(F)F (racemic) , please?
Reply: 7.85

---

TGT: Glucocorticoid receptor (Homo sapiens)
METHOD_DESCRIPTION: Transactivation activity of glucocorticoid receptor in HFF assessed as induction of aromatase activity by measuring beta-estradiol activity after 18 to 24 hrs by ELISA
EXPERIMENTAL_CONDITIONS: read-out: EC50
Would you mind telling me the reported pEC50 of each entry?
Scale note: pEC50 = -log10(concentration in M).

Task item: Would you mind telling me what pEC50 value was observed for CC(C)(CC(O)(Cc1cc2ccccc2[nH]1)C(F)(F)F)c1cc(F)cc2c1OCC2 (racemic) ?
Reply: 6.90

Task item: Fill blank: measured pEC50 of the molecule COc1ccc(F)cc1C(C)(C)CC(O)(Cc1cc2cccc(F)c2[nH]1)C(F)(F)F (racemic) is ____.
Reply: 6.33

Task item: Find the recorded pEC50 belonging to COc1ccc(F)cc1C(C)(C)CC(O)(Cc1cc2c(C)cccc2[nH]1)C(F)(F)F (racemic) and report it.
Reply: 8.05

---

TGT: UniProt P06401
Sequence (P06401 whole entry): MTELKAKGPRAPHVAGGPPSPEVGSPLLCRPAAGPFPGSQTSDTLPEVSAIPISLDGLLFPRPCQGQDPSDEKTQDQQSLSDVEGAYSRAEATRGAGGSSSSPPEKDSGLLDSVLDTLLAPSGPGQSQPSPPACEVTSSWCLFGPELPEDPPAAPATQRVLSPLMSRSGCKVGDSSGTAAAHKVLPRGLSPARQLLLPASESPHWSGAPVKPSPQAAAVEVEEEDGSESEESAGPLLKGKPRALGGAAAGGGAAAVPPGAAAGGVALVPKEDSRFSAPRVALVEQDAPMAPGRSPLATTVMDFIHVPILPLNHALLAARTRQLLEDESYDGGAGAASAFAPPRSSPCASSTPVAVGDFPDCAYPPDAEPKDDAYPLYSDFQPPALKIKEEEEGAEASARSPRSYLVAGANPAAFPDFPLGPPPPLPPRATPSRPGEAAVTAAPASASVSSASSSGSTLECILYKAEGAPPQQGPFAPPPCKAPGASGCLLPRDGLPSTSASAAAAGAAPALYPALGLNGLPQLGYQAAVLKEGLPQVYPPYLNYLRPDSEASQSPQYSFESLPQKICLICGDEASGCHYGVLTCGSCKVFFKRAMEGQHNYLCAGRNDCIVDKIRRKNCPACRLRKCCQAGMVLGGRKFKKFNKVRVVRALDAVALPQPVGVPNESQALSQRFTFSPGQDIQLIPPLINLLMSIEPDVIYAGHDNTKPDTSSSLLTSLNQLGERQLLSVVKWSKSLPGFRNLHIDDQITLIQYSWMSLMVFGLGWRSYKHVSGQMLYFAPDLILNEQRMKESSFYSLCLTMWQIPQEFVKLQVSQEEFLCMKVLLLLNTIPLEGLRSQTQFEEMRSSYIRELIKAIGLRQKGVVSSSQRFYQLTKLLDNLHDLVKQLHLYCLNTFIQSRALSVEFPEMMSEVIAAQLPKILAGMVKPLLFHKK
METHOD_DESCRIPTION: Displacement of tetramethylrhodamine-labeled RU-486 from human recombinant progesterone receptor expressed in baculovirus infected insect cells by fluorescence polarization assay
pIC50: −log10 of the molar value.
// Condition not met strictly below 6 in pIC50; Condition met otherwise

Task item: Assess whether reported pIC50 for `C[C@@H]1C[C@H]2[C@@H]3CCC4=CC(=O)C=C[C@]4(C)[C@@]3(F)[C@@H](O)C[C@]2(C)[C@@]1(O)C(=O)CO` sits at 6 or higher.
Reply: Condition not met

Task item: API: above_or_equal(metric=pIC50, cutoff=6) for item COc1ccc(F)cc1C(C)(C)CC(O)(Cc1cc2cccc(C#N)c2[nH]1)C(F)(F)F (racemic)
Reply: Condition not met

Task item: Reported pIC50 at or above 6? COc1ccc(F)cc1C(C)(C)CC(O)(Cc1cc2c(C(F)(F)F)cccc2[nH]1)C(F)(F)F (racemic)
Reply: Condition not met

Task item: # check: pIC50 of CC(C)(CC(O)(Cc1cc2ccccc2[nH]1)C(F)(F)F)c1cc(S(C)(=O)=O)cc2c1OCC2 (racemic) is greater than or equal to 6
Reply: Condition not met

Task item: I'd appreciate it if you could say whether COc1ccc(F)cc1C(C)(C)CC(O)(Cc1cc2cc(C(F)(F)F)ccc2[nH]1)C(F)(F)F (racemic) has pIC50 at least equal to 6.
Reply: Condition not met

Task item: Decide: is the reported value of pIC50 for COc1ccc(F)cc1C(C)(C)CC(O)(Cc1cc2ccc(C#N)cc2[nH]1)C(F)(F)F (racemic) equal to or greater than 6?
Reply: Condition met

Task item: Kindly determine if pIC50 recorded for COc1ccc(F)cc1C(C)(C)CC(O)(Cc1cc2cc(F)ccc2[nH]1)C(F)(F)F (racemic) is above or exactly 6.
Reply: Condition met

Task item: Could you verify whether the entry CC(C)(CC(O)(Cc1cc2ccc(C#N)cc2[nH]1)C(F)(F)F)c1cc(S(C)(=O)=O)cc2c1OCC2 (racemic) shows pIC50 of no less than 6?
Reply: Condition not met

Task item: Form field: pIC50 at least 6? Entry: CC(C)(CC(O)(Cc1cc2cc(C#N)ccc2[nH]1)C(F)(F)F)c1cc(S(C)(=O)=O)cc2c1OCC2 (racemic)
Reply: Condition not met

Task item: pIC50 >= 6 for COc1ccc(F)cc1C(C)(C)CC(O)(Cc1cc2cc(C)ccc2[nH]1)C(F)(F)F (racemic) ?
Reply: Condition not met

Task item: Does pIC50 meet or surpass 6 for `COc1ccc(F)cc1C(C)(C)C[C@@](O)(Cc1cc2cc(C#N)ccc2[nH]1)C(F)(F)F` ?
Reply: Condition met

Task item: Please indicate if the recorded pIC50 for COc1ccc(F)cc1C(C)(C)CC(O)(Cc1cc2ccccc2[nH]1)C(F)(F)F (racemic) meets or exceeds 6.
Reply: Condition met

Task item: Is the recorded value of pIC50 equal to or greater than 6 for this compound? COc1ccc(F)cc1C(C)(C)CC(O)(Cc1cc2cccc(C(F)(F)F)c2[nH]1)C(F)(F)F (racemic)
Reply: Condition not met
